experiment summary: Inhibition of BACE1 in human SH-SY5Y cells harboring wild type APP695 assessed as reduction in amyloid beta (1 to 42) level after 24 hrs by ELISA method
quantity measured: IC50 (µM)
All answers are understood in µM, so give the number only.

Reference set (3 entries):
CN(C)Cc1ccccc1-c1ccc(NCCN2CCCCC2)c(OCCCN2CCCCC2)c1 | 1.8
CN(C)Cc1ccccc1-c1ccc(NCCCCN2CCCCC2)c(OCCN2CCCCC2)c1 | 1.6
CN(C)Cc1ccccc1-c1ccc(NCCN2CCCCC2)c(OCCCCN2CCCCC2)c1 | 1.6

Request: Report IC50 for CN(C)Cc1ccn(-c2ccc(NCCCN3CCCCC3)c(OCCN3CCCCC3)c2)c1 please.
Response: 6.5

Request: Which IC50 is reported for this molecule? c1cc(CN2CCCCC2)cc(-c2ccc(NCCCN3CCCCC3)c(OCCN3CCCCC3)c2)c1
Response: 4.8

Request: Need IC50 of c1ccc(-c2ccc(NCCCN3CCCCC3)c(OCCN3CCCCC3)c2)c(CN2CCCCC2)c1 , thanks.
Response: 4.1

Request: Which IC50 value belongs to CN(C)Cc1ccccc1-c1cccc(OCCN2CCCCC2)c1 ?
Response: 1.2

Request: Give the measured IC50 of CN(C)Cc1ccc(-c2ccc(NCCCN3CCCCC3)c(OCCN3CCCCC3)c2)cc1 .
Response: 1.7

Request: Given the entry CN(C)Cc1ccccc1-c1ccc(NCCCN2CCCCC2)cc1 , report its measured IC50.
Response: 3.6

Request: Consider the molecule CN(C)Cc1ccccc1-c1ccc(NCCCN2CCCCC2)c(OCCN2CCCCC2)c1 and give its measured IC50.
Response: 3.4
